Catalogue of molecules with associated GVS (hygroscopicity)
procedureText: Gravimetric vapor sorption (GVS)
Format: physicochemical
testParameters: summary Table 11
All answers are understood in % uptake, so give the number only.

# example entries with known answers
molecule: O=C(c1ccc(Oc2ccccc2)cc1Cl)c1c[nH]c2ncnc(N[C@@H]3CC[C@@H](CO)OC3)c12 [amorphous Compound A]
resultNumber: 3.9
--
molecule: O=C(c1ccc(Oc2ccccc2)cc1Cl)c1c[nH]c2ncnc(N[C@@H]3CC[C@@H](CO)OC3)c12 [Form 8]
resultNumber: 0.8

Note: attention shifts to another entry.
Asked: Data request, read-out GVS (hygroscopicity), for O=C(c1ccc(Oc2ccccc2)cc1Cl)c1c[nH]c2ncnc(N[C@@H]3CC[C@@H](CO)OC3)c12 [Form 4]
Given back: 0.4
